Give measured Ki for each item. Keep answers brief.
# Target entity: Transient receptor potential cation channel subfamily V member 1 (Rattus norvegicus, UniProt O35433)
# Sequence (O35433 whole entry): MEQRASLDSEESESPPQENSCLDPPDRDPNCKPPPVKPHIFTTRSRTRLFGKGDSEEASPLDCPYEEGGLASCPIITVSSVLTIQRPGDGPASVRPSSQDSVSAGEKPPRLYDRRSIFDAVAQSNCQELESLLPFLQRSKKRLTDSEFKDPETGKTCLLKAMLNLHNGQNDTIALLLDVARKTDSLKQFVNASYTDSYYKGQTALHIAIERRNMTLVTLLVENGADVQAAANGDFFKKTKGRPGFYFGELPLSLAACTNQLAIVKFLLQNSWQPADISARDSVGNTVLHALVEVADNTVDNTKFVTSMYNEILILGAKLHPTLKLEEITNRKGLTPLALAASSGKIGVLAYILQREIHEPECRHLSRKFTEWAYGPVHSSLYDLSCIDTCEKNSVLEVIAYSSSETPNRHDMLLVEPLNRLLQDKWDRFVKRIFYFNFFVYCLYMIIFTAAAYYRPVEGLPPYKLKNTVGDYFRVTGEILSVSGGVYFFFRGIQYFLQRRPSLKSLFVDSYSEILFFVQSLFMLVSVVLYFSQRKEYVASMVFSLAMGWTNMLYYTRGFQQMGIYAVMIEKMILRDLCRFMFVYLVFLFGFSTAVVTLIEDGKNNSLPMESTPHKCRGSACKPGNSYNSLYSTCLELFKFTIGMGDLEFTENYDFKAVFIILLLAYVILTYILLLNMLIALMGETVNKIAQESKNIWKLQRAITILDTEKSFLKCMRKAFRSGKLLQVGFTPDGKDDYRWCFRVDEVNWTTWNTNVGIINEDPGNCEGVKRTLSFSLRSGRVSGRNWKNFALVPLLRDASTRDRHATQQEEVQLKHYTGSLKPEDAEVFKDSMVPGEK
# Test details: Displacement of [3H]RTX from rat TRPV1 after 60 mins by competitive binding assay
Give bare numbers, in nM.

Quick request: Ki for each listed item, please.
1. Cc1ccc(C[C@@H](CNC(=S)N[C@H](C)c2ccc(NS(C)(=O)=O)cc2)COC(=O)C(C)(C)C)cc1C
2. CC(C)(C)C(=O)OC[C@@H](CNC(=S)NCc1ccc(NS(C)(=O)=O)cc1)Cc1ccccc1
3. CC(C)(C)C(=O)OC[C@@H](CNC(=S)NCc1ccc(NS(C)(=O)=O)cc1)Cc1ccc(C(C)(C)C)cc1

[out]
1: 2.12; 2: 252; 3: 64

[in] Consider the compound shown here: Cc1ccc(C[C@H](CNC(=S)NCc2ccc(NS(C)(=O)=O)cc2)COC(=O)C(C)(C)C)cc1C What is its recorded Ki?
[out] 29.3
